Recorded protein stability index values for a group of variants are listed next.
B1: KRT13 (parent)
chain: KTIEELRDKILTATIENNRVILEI

Variants of: B1
MEASUREMENT DESCRIPTION: protein stability index of a GFP-peptide fusion (GPS, HEK-293T) (PSI 1-6); higher = more stable;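 also: lentivirally expressed fusions sorted by FACS into six bins by GFP to DsRed ratio, PSI derived from sequencing read proportions per bin multiplied by bin number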
COND: c terminus: a fixed tail appended

SEQUENCE RECORD | protein stability index
KTIEELRDKILTATIENWRVILEI | 1.96
KTIEPLRDKILTATIENNRVILEI | 3.07
KTIEELRDKILTATIENNRVILEK | 3.08
KTIEELRDKILTAQIENNRVILEI | 2.99
KTIEELTDKILTATIENNRVILEI | 2.16
KTIEELRDKTLTATIENNRVILEI | 1.43
KTIEELRDKILTATIENNRVISEI | 2.1
KTIEELRDKILTATIENNRVILFI | 4.41
KTPEELRDKILTATIENNRVILEI | 1.39
